Origin of values: patent US9499553B2

- MEASURED_ON: human NaPi-IIb (Homo sapiens, UniProt O95436)
- Construct: expressed in transfected cells
- PROTOCOL: Inhibitory effect on 33PO4 uptake into human NaPi-IIb-expressing CHO cells
- Format: cell-based
- PROTOCOL_CONDITIONS: read-out: IC50
Give IC50 for every item shown.

So, CN1N(Cc2ccc(OCCCC(=O)O)c(F)c2F)C(=O)C(C(=O)Nc2ccc(C(F)(F)F)cc2-c2cc(C(F)(F)F)ncn2)=C(O)C12CCCC2 [Example 332] ? Its IC50 was 23.9 µM

The reported value for Cc1cc(-c2cc(C(F)(F)F)ccc2NC(=O)C2=C(O)[C@@]3(C)CCCN3N(Cc3cccc(F)c3F)C2=O)cnc1C#N [Example 101] in terms of IC50 is 9.4 µM

Lookup result for C[C@]12CCCN1N(CCCC(F)(F)F)C(=O)C(C(=O)Nc1ccc(C(F)(F)F)cc1-c1cc(C(F)(F)F)ncn1)=C2O [Example 234] ; measured IC50: 9.4 µM

IC50 measured on C[C@]12CCCN1N(Cc1cccc(F)c1F)C(=O)C(C(=O)Nc1ccc(C(F)(F)F)cc1-c1ncnc(Cl)c1Cl)=C2O [Example 70] = 8.4 µM

Query C[C@]12CCCN1N(Cc1cccc(F)c1)C(=O)C(C(=O)Nc1cc(F)c(Br)c(F)c1)=C2O [Example 36] yields IC50 of 6.1 µM

Reported IC50 ( C[C@]12CCCN1N(Cc1ccc(Cl)cc1)C(=O)C(C(=O)Nc1ccc(C(F)(F)F)cc1-c1cc(C(F)(F)F)ncn1)=C2O [Example 182] ) = 5.1 µM

Entry under test: C[C@]12CCCN1N(Cc1cccc(F)c1F)C(=O)C(C(=O)Nc1ccc(Br)c(C(F)(F)F)c1)=C2O [Example 30] . Its IC50 was 2.3 µM

====

- MEASURED_ON: human NaPi-IIb (Homo sapiens, UniProt O95436)
- Construct: expressed in transfected cells
- PROTOCOL: Inhibitory effect on 33PO4 uptake into human NaPi-IIb-expressing CHO cells
- Format: cell-based
- PROTOCOL_CONDITIONS: read-out: IC50
pIC50: −log10 of the molar value.
YES means recorded pIC50 is 5 or above; NO means it is below 5.

query: API: above_or_equal(metric=pIC50, cutoff=5) for item C[C@]12CCCN1N(Cc1cccc(F)c1F)C(=O)C(C(=O)Nc1ccc(Cl)cc1-c1ccc(C(F)(F)F)nc1)=C2O
result: YES

query: Threshold query (pIC50 >= 5) on Cc1c(Cl)ncnc1-c1cc(C(F)(F)F)ccc1NC(=O)C1=C(O)[C@H](C(C)(C)C)N(C)N(Cc2ccc(OCCN3CCOCC3)c(F)c2F)C1=O
result: NO

query: Would you say C[C@]12CCCN1N(Cc1ccccc1Cl)C(=O)C(C(=O)Nc1cc(F)c(Br)c(F)c1)=C2O shows pIC50 at minimum 5?
result: YES

query: Is it the case that CCC1(CC)C(O)=C(C(=O)Nc2ccc(C(F)(F)F)cc2-c2cc(C(F)(F)F)ncn2)C(=O)N(Cc2ccc(OCCN3CCOCC3)c(F)c2F)N1C has pIC50 reaching or exceeding 5?
result: NO

query: Identify whether the reported pIC50 of the following compound is 5 or greater: C[C@]12CCCN1N(Cc1ccccc1)C(=O)C(C(=O)Nc1ccc(C(F)(F)F)cc1-c1cc(C(F)(F)F)ncn1)=C2O
result: YES

query: # check: pIC50 of CN1N(Cc2ccc(OCCN3CCOCC3)c(F)c2F)C(=O)C(C(=O)Nc2ccc(Br)c(C(F)(F)F)n2)=C(O)C12CCCCC2 is greater than or equal to 5
result: NO

query: Please tell me: is the compound Cc1c(C#N)ncnc1-c1cc(C(F)(F)F)ccc1NC(=O)C1=C(O)[C@H](C(C)(C)C)N(C)N(Cc2ccc(OCCN3CCOCC3)c(F)c2F)C1=O at or over 5 in terms of pIC50?
result: NO

query: Assess whether reported pIC50 for CSc1cc(-c2cc(C(F)(F)F)ccc2NC(=O)C2=C(O)[C@@]3(C)CCCN3N(Cc3cccc(F)c3F)C2=O)cnc1C#N sits at 5 or higher.
result: NO

====

Provide the recorded pIC50 for the entries that follow.
- MEASURED_ON: human NaPi-IIb (Homo sapiens, UniProt O95436)
- Construct: expressed in transfected cells
- PROTOCOL: Inhibitory effect on 33PO4 uptake into human NaPi-IIb-expressing CHO cells
- Format: cell-based
- PROTOCOL_CONDITIONS: read-out: IC50
- Method: Test Example 2: Inhibitory Effect on PO4 Uptake into Human NaPi-IIb-Expressing Cell CHO cells were transfected with human NaPi-IIb expression plasmids, and a stably human NaPi-IIb-expressing cell line was obtained using G418. The human NaPi-IIb-expressing cells were inoculated to a 96-well plate and incubated overnight in a CO2 incubator. […] After washing with ice-cold buffer A, a liquid scintillator was added to each reaction mixture, and the amount of ^33PO4 uptake was measured using TopCount.
Note on pIC50: it is the negative log10 of concentration, concentration in mol/L.

The recorded pIC50 for COC(=O)c1cc(F)c(CN2C(=O)C(C(=O)Nc3ccc(C(F)(F)F)cc3-c3ccc(C(F)(F)F)nc3)=C(O)[C@@]3(C)CCCN23)c(F)c1 is 5.74

So, C[C@]12CCCN1N(Cc1ccccc1C#N)C(=O)C(C(=O)Nc1cc(F)c(Br)c(F)c1)=C2O ? Its pIC50 was 5.14

For this molecule ( CSc1ccc(-c2cc(Cl)ccc2NC(=O)C2=C(O)[C@H](C(C)(C)C)N(C)N(Cc3ccc(OCCN4CCOCC4)c(F)c3F)C2=O)cn1 ), measured pIC50 is 5.35

According to the records, this molecule C[C@]12CCCN1N(Cc1ccc(OCCN3CCOCC3)c(Cl)c1)C(=O)C(C(=O)Nc1ccc(C(F)(F)F)cc1-c1ccc(C(F)(F)F)nc1)=C2O displays pIC50 of 4.71

Briefly, pIC50 measured for C[C@]12CCCN1N(Cc1ccc(CCCOCCCO)c(F)c1F)C(=O)C(C(=O)Nc1ccc(C(F)(F)F)cc1-c1ccc(C(F)(F)F)nc1)=C2O : 5.11

Measured pIC50, CN1N(Cc2ccc(OCC(=O)N3CCOCC3)c(F)c2F)C(=O)C(C(=O)Nc2ccc(C(F)(F)F)cc2-c2cc(C(F)(F)F)ncn2)=C(O)C12CCC2 : 4.71

====

Field: pIC50. Provide a value for each of the compounds that follow.
- MEASURED_ON: human NaPi-IIb (Homo sapiens, UniProt O95436)
- Construct: expressed in transfected cells
- Sequence (O95436 1-690): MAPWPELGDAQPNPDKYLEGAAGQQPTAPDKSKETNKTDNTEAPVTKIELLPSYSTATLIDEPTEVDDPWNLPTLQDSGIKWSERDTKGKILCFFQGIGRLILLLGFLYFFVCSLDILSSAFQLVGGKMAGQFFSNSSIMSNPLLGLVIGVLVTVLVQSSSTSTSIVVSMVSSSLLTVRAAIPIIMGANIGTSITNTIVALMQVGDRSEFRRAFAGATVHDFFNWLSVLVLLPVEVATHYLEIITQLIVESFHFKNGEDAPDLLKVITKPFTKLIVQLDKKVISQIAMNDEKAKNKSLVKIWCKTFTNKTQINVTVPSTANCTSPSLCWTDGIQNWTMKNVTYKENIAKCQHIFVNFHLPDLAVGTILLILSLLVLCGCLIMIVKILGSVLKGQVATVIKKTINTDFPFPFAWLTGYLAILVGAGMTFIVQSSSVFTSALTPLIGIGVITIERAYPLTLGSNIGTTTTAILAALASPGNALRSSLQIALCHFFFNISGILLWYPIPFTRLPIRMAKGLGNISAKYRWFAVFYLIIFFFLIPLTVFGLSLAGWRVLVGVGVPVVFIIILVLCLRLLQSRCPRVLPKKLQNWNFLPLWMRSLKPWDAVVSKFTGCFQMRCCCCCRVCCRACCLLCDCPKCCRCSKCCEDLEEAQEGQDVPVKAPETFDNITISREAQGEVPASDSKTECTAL
- PROTOCOL: Inhibitory effect on 33PO4 uptake into human NaPi-IIb-expressing CHO cells
- Assay type: cell-based
- PROTOCOL_CONDITIONS: read-out: IC50
Counter-ions that a name gives are not always drawn.
Quick note: pIC50 values are minus log10 of concentrations in mol/L.

Given item C[C@]12CCCN1N(Cc1ccc(C#CCCCCC(=O)O)c(F)c1F)C(=O)C(C(=O)Nc1ccc(C(F)(F)F)cc1-c1cncc(C(F)(F)F)c1)=C2O , the value recorded as its pIC50 is 5.04

Lookup result for CN1N(Cc2ccc(OCCN3CCOCC3)c(F)c2F)C(=O)C(C(=O)Nc2ccc(C(F)(F)F)cc2-c2ccc(C(F)(F)F)nc2)=C(O)C12CCCC2 ; measured pIC50: 5.10

The measured pIC50 associated with COc1c(C#N)ncnc1-c1cc(C(F)(F)F)ccc1NC(=O)C1=C(O)[C@@]2(C)CCCN2N(Cc2cccc(F)c2F)C1=O reads 5.00

The compound identified as C[C@]12CCCN1N(Cc1c(Cl)cc(OCCN3CCOCC3)cc1Cl)C(=O)C(C(=O)Nc1cnc(C(F)(F)F)nc1-c1ccc(C(F)(F)F)nc1)=C2O [Example 146, hydrochloride] registered its pIC50 at 4.99
